// data source = PubChem BioAssay (NCI)

Tested on: MALME-3M melanoma
PROTOCOL TEXT: NCI tumour cell line growth inhibition, 48 h
Please provide measured TGI for the entries that follow.
Kindly provide the numeric value in µM only, without the unit symbol.

// field: TGI; key: Cn1ccnc1C(=O)/C=C/c1ccc(C(=O)Nc2ccccc2F)cc1 ; value = 4.58

// field: TGI; key: C[PH+](C)C.C[PH+](C)C.[Au] ; value = 4.02

// field: TGI; key: O=C1/C(=C/c2ccc(Cl)cc2)CCC/C1=C\c1ccc(O)c(CN2CCCCC2)c1 ; value = 59.1

###

Please provide measured TGI for the entries that follow.
Tested on: ACHN renal
PROTOCOL TEXT: NCI tumour cell line growth inhibition, 48 h

// field: TGI; key: Cc1c(-c2ccc(O)c(O)c2)oc(=O)c2c(O)cc(O)cc12 ; value = > 100 µM

// field: TGI; key: COc1cc(/C=C2\CCC(C)C3=C(c4cc(OC)c(OC)c(OC)c4)C(C#N)=C(N)OC32)cc(OC)c1OC (stereo not given) ; value = > 65.6 µM

// field: TGI; key: Cc1cc(Br)ccc1NC1=CC(=O)C(=O)c2ccccc21 ; value = > 100 µM

// field: TGI; key: N#CCCN1C/C(=C/c2ccccc2)C(=O)/C(=C/c2ccccc2)C1 ; value = 3.4 µM

// field: TGI; key: C=C[C@@]1(C)CC2(C=C(CO)C(O)O2)Oc2c1c(=O)oc1cccc(C)c21 (stereo not given in full) ; value = 21.2 µM

// field: TGI; key: Cc1ccc2c3c4c(ccc13)C(C)(C)OC4=C(C(C)C)C2=O ; value = > 100 µM

// field: TGI; key: O=C(/C=C/c1ccccc1O)C(c1ccccc1)c1ccccc1 ; value = > 100 µM

// field: TGI; key: N#Cc1c(-c2ccc(Cl)cc2)cc(-c2cc(O)ccc2O)nc1N ; value = 12.2 µM

// field: TGI; key: CCCCCCC(C)c1ccc2c(c1)C(=O)c1nc3ccncc3c(=O)n1-2 (stereo not given) ; value = > 29.5 µM

// field: TGI; key: COc1cc2c3c(n(CCCNCCCNCCCn4c5c(c6cc(OC)c(OC)cc6c4=O)C(=O)c4ccccc4-5)c(=O)c2cc1OC)-c1ccccc1C3=O ; value = > 100 µM
